- assay-explanation: In vitro anabolism of Compound 9, intracellular triphosphate in replicon cells
- Format: in vitro ADME, human
- condition-info: human, Huh-7 cells carrying an HCV subgenomic replicon, Huh-7 replicon cells; read-out: Triphosphate decay half-life, Initial phase (α, h) (converted)
assay-readout: half-life at 10 μM (h)
Respond with the bare value in h.

Problem: State its half-life at 10 μM for this compound: C[C@@]1(O)[C@H](O)[C@@H](COP(=O)(O)OP(=O)(O)OP(=O)(O)O)O[C@H]1c1ccc2c(N)ncnn12
Result: 0.59

====

- assay-explanation: Cytotoxicity (CellTiter-Blue / MTT) run with the replicon assay
- Assay type: cell-based
- condition-info: human, MP-1 cells
Property: CC50 at 72 h; scope: individual molecules
Enter your answer as a number in µM; do not include the unit.

C[C@@]1(O)[C@H](O)[C@@H](CO)O[C@H]1c1cc(C#N)c2c(N)ncnn12 [Compound 14]	18.8
CC(C)(C)C(=O)OCOP(=O)(OCOC(=O)C(C)(C)C)OC[C@H]1O[C@@H](c2ccc3c(N)ncnn23)[C@](C)(O)[C@@H]1O [Compound 34]	45
C[C@@]1(O)[C@H](O)[C@@H](CO)O[C@H]1c1cc(C(N)=O)c2c(N)ncnn12 [Compound 15]	0.37
C[C@@]1(O)[C@H](O)[C@@H](CO)O[C@H]1c1ccc2c(N)ncnn12 [Compound 9]	365

Problem: Provide CC50 at 72 h value for the following molecule: C[C@@]1(O)[C@H](O)[C@@H](CO)O[C@H]1c1cc(Cl)c2c(N)ncnn12 [Compound 12]
Result: 6.5

====

- assay-explanation: Pharmacokinetics in monkeys
- Assay type: in vivo, cynomolgus monkeys
- condition-info: cynomolgus monkey, plasma, 5 mg/kg, oral 5 mg/kgBW vs iv 2 mg/kgBW, read-out: F % (oral bioavailability)
assay-readout: bioavailability (%)
Answer with a number only, understood to be in %.

Problem: Hello, please tell me recorded bioavailability for this one: C[C@@]1(O)[C@H](O)[C@@H](CO)O[C@H]1c1ccc2c(N)ncnn12
Result: 33

====

- assay-explanation: In vitro anabolism of Compound 9, intracellular triphosphate in primary human hepatocytes
- Type: in vitro ADME
- condition-info: human, plated primary human hepatocytes, Human Hepatocytes; read-out: Triphosphate decay half-life, Initial phase (α, h) (converted)
assay-readout: half-life at 10 μM (h)
API: value field is a number in h; no unit string.

Problem: Please give measured half-life at 10 μM of the following entry: C[C@@]1(O)[C@H](O)[C@@H](COP(=O)(O)OP(=O)(O)OP(=O)(O)O)O[C@H]1c1ccc2c(N)ncnn12 [Compound 25]
Result: 3.4

====

- assay-explanation: In vitro anabolism of Compound 9, intracellular triphosphate in replicon cells
- Type: in vitro ADME, human
- condition-info: human, Huh-7 cells carrying an HCV subgenomic replicon, Huh-7 replicon cells; read-out: Triphosphate decay half-life, Elimination phase (β, h)
assay-readout: half-life at 10 μM

Problem: Please give the documented half-life at 10 μM of C[C@@]1(O)[C@H](O)[C@@H](COP(=O)(O)OP(=O)(O)OP(=O)(O)O)O[C@H]1c1ccc2c(N)ncnn12 [Compound 25]
Result: ≥ 38 h

====

- assay-explanation: Pharmacokinetics in rats
- Type: in vivo, male Sprague-Dawley rats
- condition-info: male, Sprague-Dawley, plasma, 5 mg/kg; Rat; oral 5 mg/kgBW vs iv 2 mg/kgBW; read-out: F % (oral bioavailability)
assay-readout: bioavailability (%)
Report the value in % with no unit label.

Problem: Respond only with bioavailability recorded for C[C@@]1(O)[C@H](O)[C@@H](CO)O[C@H]1c1ccc2c(N)ncnn12 [Compound 9]
Result: 83
